- Test system: Human alphaherpesvirus 1
- EXPERIMENT SUMMARY: Antiviral activity against herpes simplex virus type 1 (HSV-1) was performed by HSV-1 ELISA assays.
- Format: functional, organism-based
pIC50: −log10 of the molar value.
EXPERIMENTAL READOUT: pIC50

Entry OC[C@H]1OC(n2c(SCc3ccccc3)nc3ccc(Cl)cc32)[C@H](O)[C@@H]1O (stereo partly drawn) ; assay system Human alphaherpesvirus 1; pIC50 recorded at < 4.00

Entry O=[N+]([O-])c1ccc2[nH]c(Cl)nc2c1 ; assay system Human alphaherpesvirus 1; pIC50 recorded at 4.68

Entry OC[C@H]1OC(n2c(Cl)nc3ccc(Cl)cc32)[C@H](O)[C@@H]1O (stereo partly drawn) ; assay system Human alphaherpesvirus 1; pIC50 recorded at < 4.00

Entry OC[C@H]1OC(n2c(Cl)nc3cc(Cl)ccc32)[C@H](O)[C@@H]1O (stereo partly drawn) ; assay system Human alphaherpesvirus 1; pIC50 recorded at < 4.00

Entry OC[C@H]1O[C@@H](n2c(=S)[nH]c3ccc(Cl)cc32)[C@H](O)[C@@H]1O ; assay system Human alphaherpesvirus 1; pIC50 recorded at < 4.00

Entry COc1nc2ccc(Cl)cc2n1C1O[C@H](CO)[C@@H](O)[C@H]1O (stereo partly drawn) ; assay system Human alphaherpesvirus 1; pIC50 recorded at < 4.00

Entry Nc1ccc2nc(Cl)n(C3O[C@H](CO)[C@@H](O)[C@H]3O)c2c1 (stereo partly drawn) ; assay system Human alphaherpesvirus 1; pIC50 recorded at < 4.00

Entry CSc1nc2ccc(Cl)cc2n1C1O[C@H](CO)[C@@H](O)[C@H]1O (stereo partly drawn) ; assay system Human alphaherpesvirus 1; pIC50 recorded at > 4.00
